- SYSTEM_UNDER_TEST: T1, YU-2 gp140 (HIV-1 YU2, UniProt P35961 32-670)
- T1 construct: domain: gp140; also called YU2 gp140 trimer
- EXPERIMENT_SUMMARY: SPR, gp140 on chip, IgG injected
Listing of recorded Kd by entry.
The reply should contain only the number, in nM.

INSERT INTO results (binder, result_units, experimental_value) VALUES
  ('3BNC117 (antibody, V domains shown, also called 3BNC117HC; 3bnc117kc) VH: QVQLLQSGAAVTKPGASVRVSCEASGYNIRDYFIHWWRQAPGQGLQWVGWINPKTGQPNNPRQFQGRVSLTRHASWDFDTFSFYMDLKALRSDDTAVYFCARQRSDYWDFDVWGSGTQVTVSSASTKG VL: DIQMTQSPSSLSASVGDTVTITCQANGYLNWYQQRRGKAPKLLIYDGSKLERGVPSRFSGRRWGQEYNLTINNLQPEDIATYFCQVYEFVVPGTRLDLKRTVAAPSVFIFPPSD', 'nM', 6.54),
  ('1NC9 (antibody, V domains shown, also called LSSNEC9HC; LSSNEC9LC) VH: QVRLVQSGAQLKKPGASVTVSCEASGYNFVNYIINWVRQTPGRSFEWVGMIDPRRGRPWSAQKFQGRLTLTRDIDSEKLYMHLSGLRGDDTAVYYCARQDSDFHDGHGHTLRGMFDSWGQGSPVTVSS VL: QVLSVSGTPGQRVIISCSGTSSNVGGNLVSWYQHLPGAAPRLLIHRDDQRPSGVPDRFSGSKSGNSASLVISGLRSDDEADYFCAAYDSTFSLPVFGGGTRLTVLS', 'nM', 12),
  ('3BNC60 (antibody, V domains shown, also called 3BNC60HC; 3BNC60KC) VH: QVHLSQSGAAVTKPGASVRVSCEASGYKISDHFIHWWRQAPGQGLQWVGWINPKTGQPNNPRQFQGRVSLTRQASWDFDTYSFYMDLKAVRSDDTAIYFCARQRSDFWDFDVWGSGTQVTVSSASTKG VL: DIQMTQSPSSLSARVGDTVTITCQANGYLNWYQQRRGKAPKLLIYDGSKLERGVPARFSGRRWGQEYNLTINNLQPEDVATYFCQVYEFIVPGTRLDLKRTVAA', 'nM', 6.81),
  ('3BNC66 (antibody, V domains shown, also called 3BNC66HC; 3bnc66kc) VH: QVQLVQSGAALKKPGASLRISCQTYGYKFTDHLIYWWRQAPGQGLEWIGWIKPETGQPSYSYRFQGRVSLTRDTFEEIAFMDLRGLRSDDTAIYFCARRHTDYCVFDVWGSGSQIIVSS VL: DIQMTQSPSSLSASVGDTVTITCQTNKGYLNWYQQRRGRAPKLLMYDGSKLVTGVPSRLSGRRWGTQYNLTIGSLQPEDIATYYCQVYEFFGPGTRLDLKR', 'nM', 88.1);

Shifting focus to the binder that follows.
Which Kd is reported for this binder? 3BNC55 (antibody, V domains shown, also called 3BNC55HC; 3BNC55KC) VH: QVQLVQSGTAVKRPGASVRVSCQASGYTFTDYFIYWWRQAPGQGLEWLGWINPLTSQPSYPSRFQGRLTLTRDTFDEMLYMDLRGLRSDDTGIYFCARRHSDYCDFDIWGSGTQIIVSS VL: DIQMTQSPSSLSASVGDKVTITCQTSAGYLNWYQQRRGRAPKLLMYDGSRLVTGVPSRFSGRRWGTQYNLTIGSLQPEDIATYYCQVYEFFGPGTRLDLKS
57.8
